target: T1, TPP-2305 (hTNFRSF12Aaa28-80) (Human, UniProt Q9NP84 28-80); test: SPR (Biacore T100), IgG captured, TPP-2305 injected, 1:1 model
T1 construct: monomeric extracellular domain, bought; also called purified recombinant human TWEAKR protein; soluble monomeric TWEAKR
parameterMeasured: log10 Kd (log10 of the value in nM)
Answers are given as log10 of Kd in nM.

A selection of reference data follows.
{"binder": "P4A8(TPP-1324) (antibody, human IgG1, kappa, V domains shown, Human IgG1; variable domains from WO2009/140177 with constant region added) VH: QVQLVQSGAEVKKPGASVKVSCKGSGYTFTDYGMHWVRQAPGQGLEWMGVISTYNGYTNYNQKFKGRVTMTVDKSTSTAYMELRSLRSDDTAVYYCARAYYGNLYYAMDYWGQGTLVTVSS VL: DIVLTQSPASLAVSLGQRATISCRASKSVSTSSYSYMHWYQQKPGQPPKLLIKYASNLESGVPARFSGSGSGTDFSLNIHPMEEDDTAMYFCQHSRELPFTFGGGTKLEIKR", "measurement": 0.36}
{"binder": "TPP-2149 (antibody, human IgG1, kappa, V domains shown, Human IgG1) VH: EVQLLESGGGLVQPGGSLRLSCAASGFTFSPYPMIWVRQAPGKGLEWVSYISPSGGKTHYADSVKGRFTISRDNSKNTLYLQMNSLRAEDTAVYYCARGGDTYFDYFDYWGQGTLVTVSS VL: DIQMTQSPATLSASVGDRVTITCRASQSISGYLNWYQQKPGKAPKLLIYQASSLQSGVPSRFSGSGSGTDFTLTISSLQPEDFATYYCQQSYTSPFITFGPGTKVEIKR", "measurement": 1.08}

What value of log10 Kd has been reported for the following binder? TPP-883 (antibody, human IgG1, kappa, V domains shown, Human IgG1; parent antibody from the phage library) VH: EVQLLESGGGLVQPGGSLRLSCAASGFTFSPYPMMWVRQAPGKGLEWVSYISPSGGKTHYADSVKGRFTISRDNSKNTLYLQMNSLRAEDTAVYYCARGGDGYFDYFDYWGQGTLVTVSS VL: DIQMTQSPATLSASVGDRVTITCRASQSISSYLNWYQQKPGKAPKLLIYAASSLQSGVPSRFSGSGSGTDFTLTISSLQPEDFATYYCQQSYSSPGITFGPGTKVEIKR
2.31

What value of log10 Kd has been reported for the following binder? P3G5(TPP-2195) (antibody, mouse IgG2a, kappa, V domains shown, Murine IgG2a; variable domains from WO2009/140177 with constant region added) VH: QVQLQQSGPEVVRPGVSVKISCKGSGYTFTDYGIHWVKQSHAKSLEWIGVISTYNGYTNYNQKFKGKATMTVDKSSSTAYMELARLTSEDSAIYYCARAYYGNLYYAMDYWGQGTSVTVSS VL: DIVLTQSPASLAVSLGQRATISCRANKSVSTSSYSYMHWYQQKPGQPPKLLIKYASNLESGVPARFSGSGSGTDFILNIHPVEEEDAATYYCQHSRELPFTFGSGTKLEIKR
-0.30

What value of log10 Kd has been reported for the following binder? TPP-2090 (antibody, human IgG1, kappa, V domains shown, Human IgG1) VH: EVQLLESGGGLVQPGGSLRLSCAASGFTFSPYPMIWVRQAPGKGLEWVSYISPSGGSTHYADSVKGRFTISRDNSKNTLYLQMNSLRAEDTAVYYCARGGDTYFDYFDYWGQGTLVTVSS VL: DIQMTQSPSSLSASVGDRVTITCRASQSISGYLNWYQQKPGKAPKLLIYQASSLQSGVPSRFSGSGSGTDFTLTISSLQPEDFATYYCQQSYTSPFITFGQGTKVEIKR
1.09
